Provide the reported cytotoxicity at 70.5 h of each item.
# Experiment description: Human HepG2 cell viability assay in 384 well format
# Type: toxicity, cell-based
# Parameters: dose 125 nL, time 70.5 hour; concentration not given beside the values
# Setup conditions: HepG2 cells, read-out: Inhibition
One number for each entry, in %.

Solved entries (count: 10):
Cc1noc(C)c1CN(C)C(=O)C1(NS(C)(=O)=O)CCCCC1 ... -0.856
Cc1cccc(CN2CCCC(O)(CNCc3ncccc3C)C2=O)c1 (configuration not stated) ... -7.55
CC(O)CN1CCC(CN(C)Cc2ccc(C#N)cc2)CC1 (configuration not stated) ... -11
COC[C@]12COC[C@H]1CN(Cc1cc(OC)cc(OC)c1)C2 ... -10.3
CSc1ncc(C(=O)N(C)C(C)Cc2ccccn2)cn1 (configuration not stated) ... -5.33
Cc1nn(C(C)C)c2cnn(CC(=O)N3CCSCC3)c12 ... -1.45
Cc1ccsc1CN1CCC(c2nnc(Cn3cccn3)n2C)CC1 ... -2.95
Cn1ccnc1CN1CCc2c(COCC3CC3)nn(C)c2C1 ... -6.3
CN(C)C(=O)CC1CC2(CCNCC2)c2cc(F)ccc21 (configuration not stated) ... -8.47
CS(=O)(=O)NC1CCCN(C(=O)NCc2ccccc2Cl)C1 (configuration not stated) ... -2.53

For the 3 compounds below, give their cytotoxicity at 70.5 h values.
1. Cc1nnc(N2CC[C@@H](OCC3CC3)[C@@H](Cc3ccccc3)C2)s1
2. CCCn1nccc1-c1cc(C2CCN(C(C)=O)CC2)ccn1
3. O=C(CN(Cc1cccs1)C1CCS(=O)(=O)C1)NC1CCCCC1 (configuration not stated)

RESULT:
[-7.86, -8.34, 26.4]

---

Provide the reported cytotoxicity at 70.5 h of each item.
# Experiment description: Human HepG2 cell viability assay in 384 well format
# Assay type: toxicity, cell-based
# Design: dose 125 nL, time 70.5 hour; concentration not given beside the values
# Setup conditions: HepG2 cells, read-out: Inhibition
Give bare numbers, in %.

Solved entries (count: 10):
CN(C)C(=O)CN1CCCC12CCCN(c1ncc(F)cn1)C2 (stereo unspecified) ... -4.71
CN1CCN(C(=O)c2ncn3c2CNS(=O)(=O)c2ccccc2-3)CC1 ... 1.85
Cc1c[nH]c(C2COCCN2C(=O)c2ccc(=O)[nH]n2)n1 (stereo unspecified) ... -4.98
CN1CCC(Cc2noc(CCc3nc4ccccc4nc3O)n2)CC1 ... -7.26
CC(C)(C)C(=O)NCCCn1cncn1 ... 6.35
O=C1CCC2(CCCN(C(=O)c3ccoc3)C2)CN1Cc1ccncc1 (stereo unspecified) ... -16.8
CN(C)C(=O)CN1CC[C@H]2CN(C3CCOCC3)C[C@@H]2C1=O ... -4.31
Fc1ccc(OCCCNC2=NCCCN2)cc1 ... -5.27
Cc1nnc(Nc2cccc(C3CCN(Cc4ncc[nH]4)CC3)n2)s1 ... 18.8
O=C(Nc1ccccc1OC(F)F)C1=NN(c2ccccc2)C(=O)CN1 ... -8.48

QUERY: # input molecule: CNc1cncc(C2CCCN2C(=O)CCn2ccnc2)n1 (stereo unspecified) ; wanted: its cytotoxicity at 70.5 h
RESULT: -6.98

---

# Experiment description: Human HepG2 cell viability assay in 384 well format
# Assay type: toxicity, cell-based
# Parameters: dose 125 nL, time 70.5 hour; concentration not given beside the values
# Setup conditions: HepG2 cells, read-out: Inhibition
Observable: cytotoxicity at 70.5 h

CC(C)c1cc(C(=O)NCC2CCCN(C(C)C)C2)n(C)n1 (configuration not stated) ... -0.374%
CN(C)C(=O)CN1CCCCC1c1nc(N)ncc1-c1ccccc1 (configuration not stated) ... -17.6%
CN(Cc1cnc(N)nc1)C(=O)c1coc(COc2ccccc2)n1 ... -2.22%
NC(=O)CCCNC(=O)COc1ccccc1C(F)(F)F ... -5.37%
Cc1nnc(CN(Cc2ccc3c(c2)OCO3)C2CCCCC2)o1 ... -2.59%

For the 6 compounds below, give their cytotoxicity at 70.5 h values.
1. O=C(CN1CCCC1Cn1cncn1)NCC1(c2ccccc2)CC1 (configuration not stated)
2. Cc1nc(C2CCCCN2S(C)(=O)=O)no1 (configuration not stated)
3. COCCNC(=O)C1(CCCc2cccnc2)CCCN1C (configuration not stated)
4. O=C(c1ccc(N2CCCC2)nn1)N1CCCc2cc(F)c(F)cc21
5. Cc1ccc(F)c(OC2CCCN(c3cnn(C)c3)C2=O)c1 (configuration not stated)
6. Cc1nn(C)c(C)c1C1CCCN1c1ncnc2[nH]ccc12 (configuration not stated)

RESULT:
1: -5.75%; 2: -13.4%; 3: 13.5%; 4: -1.17%; 5: -3.77%; 6: 0.0825%

QUERY: # input compound: CO[C@@H]1CC[C@H]2[C@H]1OCCN2C(=O)c1ccc(C)nc1 ; wanted: its cytotoxicity at 70.5 h
RESULT: -3.99%

Values compiled from ChEMBL document CHEMBL3507680.
